Let's look at some molecules and their measured IC50.
# tgt: JAK2 kinase (Homo sapiens, UniProt O60674)
# Sequence (O60674 whole entry): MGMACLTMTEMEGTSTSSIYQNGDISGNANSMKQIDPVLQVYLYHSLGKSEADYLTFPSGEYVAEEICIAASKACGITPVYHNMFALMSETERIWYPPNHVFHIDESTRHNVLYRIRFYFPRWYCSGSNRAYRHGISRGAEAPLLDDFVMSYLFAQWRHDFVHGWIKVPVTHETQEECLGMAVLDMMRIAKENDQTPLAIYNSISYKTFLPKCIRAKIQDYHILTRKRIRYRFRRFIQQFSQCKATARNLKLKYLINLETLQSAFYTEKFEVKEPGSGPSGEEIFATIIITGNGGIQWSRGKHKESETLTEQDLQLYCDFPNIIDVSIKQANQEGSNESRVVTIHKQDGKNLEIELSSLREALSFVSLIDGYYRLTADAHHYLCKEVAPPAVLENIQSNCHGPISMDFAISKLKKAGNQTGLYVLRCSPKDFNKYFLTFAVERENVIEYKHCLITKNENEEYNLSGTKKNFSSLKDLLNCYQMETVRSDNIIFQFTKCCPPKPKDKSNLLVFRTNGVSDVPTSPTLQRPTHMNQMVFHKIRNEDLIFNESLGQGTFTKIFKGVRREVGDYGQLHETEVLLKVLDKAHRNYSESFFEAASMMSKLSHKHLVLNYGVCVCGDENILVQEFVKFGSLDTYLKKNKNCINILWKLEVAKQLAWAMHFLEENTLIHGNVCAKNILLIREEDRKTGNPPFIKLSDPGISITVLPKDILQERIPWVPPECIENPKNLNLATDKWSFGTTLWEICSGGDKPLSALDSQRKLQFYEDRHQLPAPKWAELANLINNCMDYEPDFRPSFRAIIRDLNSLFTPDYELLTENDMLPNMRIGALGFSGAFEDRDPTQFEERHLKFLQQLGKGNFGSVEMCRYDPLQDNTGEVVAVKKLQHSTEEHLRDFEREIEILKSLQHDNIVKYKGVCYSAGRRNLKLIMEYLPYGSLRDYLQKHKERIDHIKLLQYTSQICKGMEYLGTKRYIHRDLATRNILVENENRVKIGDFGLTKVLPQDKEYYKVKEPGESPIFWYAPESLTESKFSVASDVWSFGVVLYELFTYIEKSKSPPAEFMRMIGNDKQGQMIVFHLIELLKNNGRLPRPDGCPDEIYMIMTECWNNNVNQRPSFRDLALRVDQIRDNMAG

[2H]C([2H])([2H])O[C@H]1CNc2cc(Nc3ncc(C(N)=O)c(NC4CC4)n3)ccc2OC1 [Example 87]    < 10 nM
CC(C)(C)Nc1nc(Nc2ccc3c(c2)NC[C@H](O)CO3)ncc1C(N)=O [Example 53]    10 to 100 nM
NC(=O)c1cnc(Nc2ccc3c(c2)NC[C@H](O)CO3)nc1NCCCCO [Example 48]    < 10 nM

Would you mind telling me what IC50 value was observed for COCCO[C@@H]1CNc2cc(Nc3ncc(C(N)=O)c(NC4CC4)n3)ccc2OC1 [Example 86] ?
< 10 nM
